target-or-system: yPDE2 (high-affinity phosphodiesterase type 2) (Saccharomyces cerevisiae, UniProt P06776)
Construct: gene PDE2
Sequence (P06776 whole entry): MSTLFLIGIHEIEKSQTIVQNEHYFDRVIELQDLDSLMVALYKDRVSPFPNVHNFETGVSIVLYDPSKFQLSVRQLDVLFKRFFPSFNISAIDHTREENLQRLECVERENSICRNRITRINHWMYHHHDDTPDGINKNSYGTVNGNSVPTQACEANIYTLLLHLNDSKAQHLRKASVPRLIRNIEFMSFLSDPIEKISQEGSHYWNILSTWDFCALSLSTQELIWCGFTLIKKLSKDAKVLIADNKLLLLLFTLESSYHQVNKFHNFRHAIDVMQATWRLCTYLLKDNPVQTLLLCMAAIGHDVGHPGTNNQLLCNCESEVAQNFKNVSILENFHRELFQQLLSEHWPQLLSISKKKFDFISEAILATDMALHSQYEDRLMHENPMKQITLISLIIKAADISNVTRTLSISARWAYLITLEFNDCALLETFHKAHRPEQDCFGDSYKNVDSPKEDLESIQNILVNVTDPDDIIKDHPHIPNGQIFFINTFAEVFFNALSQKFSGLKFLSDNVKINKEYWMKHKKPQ
assay-explanation: HPLC-UV assay of cAMP hydrolysis; Ki converted from I50 (competitive equation)
Assay type: biochemical
condition-set: read-out: Inhibitors
Attribute: Ki
measured-attribute: Ki (µM)

1. Oc1cc(O)cc(/C=C/c2ccc(O)cc2O)c1 [oxyresveratrol]    46
2. Oc1cc(O)cc(/C=C/c2ccc(O)c(O)c2)c1 [piceatannol]    50
3. O=C(Nc1c(Cl)cncc1Cl)c1ccc(OC(F)F)c(OCC2CC2)c1 [roflumilast]    0.3
